Settings: in isopropanol, 283.15 K
observation type: solubility (mole fraction)
Reply with just the number.

Form field: reported solubility (mole fraction) of `Oc1ccc(OCc2ccccc2)cc1`
0.0217

====

Details: in isopropanol, 308.15 K
observation type: solubility (mole fraction)
Reply with just the number.

Form field: reported solubility (mole fraction) of `Oc1ccc(OCc2ccccc2)cc1`
0.0503

====

Conditions: in isopropanol, 328.15 K
observation type: solubility (mole fraction)

Form field: reported solubility (mole fraction) of `Oc1ccc(OCc2ccccc2)cc1`
0.0896

====

Conditions: in ethylene glycol, 303.15 K
observation type: solubility (mole fraction)
Reply with just the number.

Form field: reported solubility (mole fraction) of `Oc1ccc(OCc2ccccc2)cc1`
0.0125

====

Conditions: in n-propanol, 323.15 K
observation type: solubility (mole fraction)
Reply with just the number.

Form field: reported solubility (mole fraction) of `Oc1ccc(OCc2ccccc2)cc1`
0.12

====

Conditions: in n-propanol, 328.15 K
observation type: solubility (mole fraction)

Form field: reported solubility (mole fraction) of `Oc1ccc(OCc2ccccc2)cc1`
0.137

====

Settings: in ethylene glycol, 318.15 K
observation type: solubility (mole fraction)
Reply with just the number.

Form field: reported solubility (mole fraction) of `Oc1ccc(OCc2ccccc2)cc1`
0.0216

====

Conditions: in water, 283.15 K
observation type: solubility (mole fraction)
Reply with just the number.

Form field: reported solubility (mole fraction) of `Oc1ccc(OCc2ccccc2)cc1`
3.57e-06

====

Details: in ethanol, 293.15 K
observation type: solubility (mole fraction)
Reply with just the number.

Form field: reported solubility (mole fraction) of `Oc1ccc(OCc2ccccc2)cc1`
0.0644

====

Conditions: in water, 298.15 K
observation type: solubility (mole fraction)

Form field: reported solubility (mole fraction) of `Oc1ccc(OCc2ccccc2)cc1`
7.04e-06

====

Details: in water, 293.15 K
observation type: solubility (mole fraction)
Reply with just the number.

Form field: reported solubility (mole fraction) of `Oc1ccc(OCc2ccccc2)cc1`
5.64e-06

====

Conditions: in n-propanol, 298.15 K
observation type: solubility (mole fraction)
Reply with just the number.

Form field: reported solubility (mole fraction) of `Oc1ccc(OCc2ccccc2)cc1`
0.0605

====

Conditions: in ethanol, 283.15 K
observation type: solubility (mole fraction)
Reply with just the number.

Form field: reported solubility (mole fraction) of `Oc1ccc(OCc2ccccc2)cc1`
0.0483

====

Details: in isopropanol, 313.15 K
observation type: solubility (mole fraction)
Reply with just the number.

Form field: reported solubility (mole fraction) of `Oc1ccc(OCc2ccccc2)cc1`
0.0583

====

Conditions: in ethanol, 313.15 K
observation type: solubility (mole fraction)
Reply with just the number.

Form field: reported solubility (mole fraction) of `Oc1ccc(OCc2ccccc2)cc1`
0.109

====

Settings: in n-propanol, 308.15 K
observation type: solubility (mole fraction)
Reply with just the number.

Form field: reported solubility (mole fraction) of `Oc1ccc(OCc2ccccc2)cc1`
0.0804

====

Settings: in water, 323.15 K
observation type: solubility (mole fraction)
Reply with just the number.

Form field: reported solubility (mole fraction) of `Oc1ccc(OCc2ccccc2)cc1`
1.91e-05

====

Conditions: in ethylene glycol, 313.15 K
observation type: solubility (mole fraction)
Reply with just the number.

Form field: reported solubility (mole fraction) of `Oc1ccc(OCc2ccccc2)cc1`
0.018

====

Conditions: in ethylene glycol, 323.15 K
observation type: solubility (mole fraction)
Reply with just the number.

Form field: reported solubility (mole fraction) of `Oc1ccc(OCc2ccccc2)cc1`
0.0257

====

Details: in water, 328.15 K
observation type: solubility (mole fraction)
Reply with just the number.

Form field: reported solubility (mole fraction) of `Oc1ccc(OCc2ccccc2)cc1`
2.29e-05

====

Settings: in ethanol, 288.15 K
observation type: solubility (mole fraction)
Reply with just the number.

Form field: reported solubility (mole fraction) of `Oc1ccc(OCc2ccccc2)cc1`
0.056

====

Conditions: in ethylene glycol, 288.15 K
observation type: solubility (mole fraction)
Reply with just the number.

Form field: reported solubility (mole fraction) of `Oc1ccc(OCc2ccccc2)cc1`
0.00664

====

Settings: in ethylene glycol, 298.15 K
observation type: solubility (mole fraction)
Reply with just the number.

Form field: reported solubility (mole fraction) of `Oc1ccc(OCc2ccccc2)cc1`
0.0101

====

Conditions: in water, 303.15 K
observation type: solubility (mole fraction)
Reply with just the number.

Form field: reported solubility (mole fraction) of `Oc1ccc(OCc2ccccc2)cc1`
8.71e-06

====

Details: in ethylene glycol, 283.15 K
observation type: solubility (mole fraction)

Form field: reported solubility (mole fraction) of `Oc1ccc(OCc2ccccc2)cc1`
0.0053

====

Details: in n-propanol, 293.15 K
observation type: solubility (mole fraction)
Reply with just the number.

Form field: reported solubility (mole fraction) of `Oc1ccc(OCc2ccccc2)cc1`
0.052

====

Conditions: in isopropanol, 303.15 K
observation type: solubility (mole fraction)
Reply with just the number.

Form field: reported solubility (mole fraction) of `Oc1ccc(OCc2ccccc2)cc1`
0.0425

====

Conditions: in ethylene glycol, 308.15 K
observation type: solubility (mole fraction)
Reply with just the number.

Form field: reported solubility (mole fraction) of `Oc1ccc(OCc2ccccc2)cc1`
0.0149

====

Details: in n-propanol, 318.15 K
observation type: solubility (mole fraction)
Reply with just the number.

Form field: reported solubility (mole fraction) of `Oc1ccc(OCc2ccccc2)cc1`
0.106

====

Conditions: in isopropanol, 323.15 K
observation type: solubility (mole fraction)

Form field: reported solubility (mole fraction) of `Oc1ccc(OCc2ccccc2)cc1`
0.0778

====

Conditions: in ethylene glycol, 328.15 K
observation type: solubility (mole fraction)
Reply with just the number.

Form field: reported solubility (mole fraction) of `Oc1ccc(OCc2ccccc2)cc1`
0.0302

====

Conditions: in ethanol, 303.15 K
observation type: solubility (mole fraction)

Form field: reported solubility (mole fraction) of `Oc1ccc(OCc2ccccc2)cc1`
0.0846

====

Settings: in ethanol, 298.15 K
observation type: solubility (mole fraction)
Reply with just the number.

Form field: reported solubility (mole fraction) of `Oc1ccc(OCc2ccccc2)cc1`
0.0737

====

Details: in n-propanol, 303.15 K
observation type: solubility (mole fraction)

Form field: reported solubility (mole fraction) of `Oc1ccc(OCc2ccccc2)cc1`
0.0702

====

Conditions: in isopropanol, 293.15 K
observation type: solubility (mole fraction)
Reply with just the number.

Form field: reported solubility (mole fraction) of `Oc1ccc(OCc2ccccc2)cc1`
0.0308

====

Details: in water, 308.15 K
observation type: solubility (mole fraction)

Form field: reported solubility (mole fraction) of `Oc1ccc(OCc2ccccc2)cc1`
1.07e-05

====

Conditions: in water, 313.15 K
observation type: solubility (mole fraction)
Reply with just the number.

Form field: reported solubility (mole fraction) of `Oc1ccc(OCc2ccccc2)cc1`
1.3e-05

====

Settings: in water, 318.15 K
observation type: solubility (mole fraction)
Reply with just the number.

Form field: reported solubility (mole fraction) of `Oc1ccc(OCc2ccccc2)cc1`
1.57e-05

====

Details: in n-propanol, 288.15 K
observation type: solubility (mole fraction)

Form field: reported solubility (mole fraction) of `Oc1ccc(OCc2ccccc2)cc1`
0.0446

====

Details: in isopropanol, 318.15 K
observation type: solubility (mole fraction)
Reply with just the number.

Form field: reported solubility (mole fraction) of `Oc1ccc(OCc2ccccc2)cc1`
0.0671
